# System Tested: T1, soluble hFKN-SEAP (extracellular region of human fractalkine conjugated to secreted alkaline phosphatase) (UniProt P78423 25-341)
# T1 chain: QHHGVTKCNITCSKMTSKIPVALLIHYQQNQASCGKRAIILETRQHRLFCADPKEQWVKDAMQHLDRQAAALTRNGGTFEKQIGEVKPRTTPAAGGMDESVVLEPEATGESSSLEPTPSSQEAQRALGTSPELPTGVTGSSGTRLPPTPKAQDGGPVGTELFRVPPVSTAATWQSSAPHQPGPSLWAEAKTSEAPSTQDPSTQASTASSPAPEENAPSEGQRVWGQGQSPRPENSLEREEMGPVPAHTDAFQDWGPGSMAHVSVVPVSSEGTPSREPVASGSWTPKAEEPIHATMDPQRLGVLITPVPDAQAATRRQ
# Protocol Notes: BIACORE
Kd overview

# Binder, Kd / pM
measured = [
    ("humanized anti-hFKN mAb H3L2-IgG2 (antibody, V domains shown) VH: QVQLVQSGAEVKKPGASVKVSCKASGYTFTNYYIHWVKQAPGQGLEWIGWIYPGDGSPKFNERFKGRTTLTADKSTNTAYMLLSSLRSDDTAVYFCATGPTDGDYFDYWGQGTTVTVSS VL: DIQMTQSPSSLSASVGDRVTITCRASGNIHNFLAWYQQKPGKAPKFLVYNEKTLADGVPSRFSGSGSGTQYTLTISSLQPEDFATYFCQQFWSTPYTFGGGTKVEIK", 8.84),
    ("humanized anti-hFKN mAb H3-L4-IgG2 (antibody, V domains shown) VH: QVQLVQSGAEVKKPGASVKVSCKASGYTFTNYYIHWVKQAPGQGLEWIGWIYPGDGSPKFNERFKGRTTLTADKSTNTAYMLLSSLRSDDTAVYFCATGPTDGDYFDYWGQGTTVTVSS VL: DIQMTQSPSSLSASVGDRVTITCRASGNIHNFLAWYQQKPGKAPKLLIYNEKTLADGVPSRFSGSGSGTDYTLTISSLQPEDFATYFCQQFWSTPYTFGGGTKVEIK", 6.43),
    ("humanized anti-hFKN mAb H3-2L4-IgG2 (antibody, V domains shown) VH: QVQLVQSGAEVKKPGASVKVSCKASGYTFTNYYIHWVKQAPGQGLEWIGWIYPGDGSPKFNERFKGRTTLTADKSTNTAYMLLSSLRSEDTAVYFCATGPTDGDYFDYWGQGTTVTVSS VL: DIQMTQSPSSLSASVGDRVTITCRASGNIHNFLAWYQQKPGKAPKLLIYNEKTLADGVPSRFSGSGSGTDYTLTISSLQPEDFATYFCQQFWSTPYTFGGGTKVEIK", 5.34),
]
